test-description: Two-step dissolution / precipitation Fasted Human in-vitro model (Fassif)
Format: physicochemical
condition: thermodynamic from solid, final pH = 6.5, 30min in FaSSGF pH1.2 + 120min in FaSSIF x2 pH6.5 / Sodium bicarbonate 90/10 v/v, 37°C, read-out: solubility (HPLC-UV dosage of supernatant), last measurement point
readout-kind: solubility at 120 min (µg/mL)
Report as a plain number; the unit µg/mL is understood.

Provide only the value of recorded solubility at 120 min for FC(F)(F)Oc1ccc(Nc2ccc3cccc(Cl)c3n2)cc1 [ABX464] 70

---

test-description: Two-step dissolution / precipitation Fed Human in-vitro model (Fessif)
Type: physicochemical
condition: thermodynamic from solid, final pH 5.0, 60min in FeSSGF pH3.0 + 120min in FeSSIF x3 pH5.0, 37°C, read-out: solubility (HPLC-UV dosage of supernatant), last measurement point
readout-kind: solubility at 120 min (mg/mL)
Report as a plain number; the unit mg/mL is understood.

Provide only the value of recorded solubility at 120 min for `FC(F)(F)Oc1ccc(Nc2ccc3cccc(Cl)c3n2)cc1` 0.508
